Test system: OVCAR-4 ovarian
assay summary: NCI-60 one-dose screen, 48 h
measurement context: 10 µM unless noted
About 83,000 compounds went through this panel and 20% of them were active in at least one assay; those are over-represented in the sample as a whole. The source made the active and inactive calls. The calls were made as follows: active = growth percent below 10; inactive = the rest.
Outcome codes: T = active, F = inactive

[
  {
    "compound": "CCCCN1CCCC[C@@H]1C(=O)N[C@H](C(=O)N(C)[C@H](CCc1nc(C(=O)N[C@@H](Cc2ccccc2)C[C@H](C)C(=O)OC)cs1)C(C)C)C(C)C",
    "experimental system": "OVCAR-4 ovarian",
    "category label": "F"
  },
  {
    "compound": "C=CCCCOC1[C@H](OCc2ccccc2)C(OCc2ccccc2)C(OC)O[C@@H]1CNC(=O)c1cccc(I)c1 (some centres undefined)",
    "experimental system": "OVCAR-4 ovarian",
    "category label": "F"
  },
  {
    "compound": "Cc1ccc(-[n+]2c3cc(N)c(C)cc3nc3cc(C)c(Nc4ccccc4)cc32)cc1",
    "experimental system": "OVCAR-4 ovarian",
    "category label": "T"
  },
  {
    "compound": "Cc1cc(Nc2ncc(Cl)c(Nc3ccccc3S(=O)(=O)C(C)C)n2)c(OC(C)C)cc1C1CCNCC1",
    "experimental system": "OVCAR-4 ovarian",
    "category label": "T"
  },
  {
    "compound": "CC1(COc2ccc3c(c2)ncn3-c2ccc3cccc(N4CCC(N)CC4)c3n2)COC1",
    "experimental system": "OVCAR-4 ovarian",
    "category label": "F"
  },
  {
    "compound": "COC(=O)[C@]12CC[C@@H](C)[C@H](C)[C@@H]1C1=CC[C@@H]3[C@@]4(C)C(c5cnco5)=C[C@@](C)(CO)C4=CC[C@@]3(C)[C@]1(C)CC2",
    "experimental system": "OVCAR-4 ovarian",
    "category label": "F"
  },
  {
    "compound": "CCN(CC)CCCC(C)Nc1cc(-c2ccc(C(F)(F)F)cc2)c(C#N)c2nc3ccccc3n12 (centres undefined)",
    "experimental system": "OVCAR-4 ovarian",
    "category label": "T"
  },
  {
    "compound": "COc1cc(Nc2c(C#N)cnc3cc(OCCCN4CCN(C)CC4)c(OC)cc23)c(Cl)cc1Cl",
    "experimental system": "OVCAR-4 ovarian",
    "category label": "F"
  },
  {
    "compound": "COc1cc(Nc2ncc(F)c(Nc3ccc4c(n3)NC(=O)C(C)(C)O4)n2)cc(OC)c1OC",
    "experimental system": "OVCAR-4 ovarian",
    "category label": "F"
  },
  {
    "compound": "COc1cccc(Nc2ncnn3ccc(CN4CC[C@@H](N)[C@H](O)C4)c23)c1",
    "experimental system": "OVCAR-4 ovarian",
    "category label": "F"
  },
  {
    "compound": "CCCCCCC1(/C=N/NC(N)=O)NC(=O)NC1=O (centres undefined)",
    "experimental system": "OVCAR-4 ovarian",
    "category label": "F"
  },
  {
    "compound": "CCCCCC(=O)OCc1ccc(Cl)c(Cl)c1",
    "experimental system": "OVCAR-4 ovarian",
    "category label": "F"
  },
  {
    "compound": "COc1cc(C(=O)NNC(=O)c2ccc(NC(=O)CCl)cc2)cc(OC)c1OC",
    "experimental system": "OVCAR-4 ovarian",
    "category label": "F"
  },
  {
    "compound": "COc1cc2ncnc3c2cc1OCCCCCN(C)Cc1ccc(Br)cc1N3",
    "experimental system": "OVCAR-4 ovarian",
    "category label": "F"
  },
  {
    "compound": "COc1ccc2c(CCCC(c3ccccc3)c3ccccc3)c3[n+](cc2c1OC)CCc1cc2c(cc1-3)OCO2",
    "experimental system": "OVCAR-4 ovarian",
    "category label": "T"
  },
  {
    "compound": "O=c1[nH]ccc2c(S(=O)(=O)N3CCCNCC3)cccc12",
    "experimental system": "OVCAR-4 ovarian",
    "category label": "F"
  },
  {
    "compound": "CC(C)OP(=O)(CCC(=O)c1c[nH]c2ccccc12)OC(C)C",
    "experimental system": "OVCAR-4 ovarian",
    "category label": "F"
  },
  {
    "compound": "Nc1c(C(=O)c2ccccc2)sc2nc(-c3cccs3)ccc12",
    "experimental system": "OVCAR-4 ovarian",
    "category label": "F"
  },
  {
    "compound": "O=C1NC(=O)[C@@H](c2cn3c4c(cccc24)CCC3)[C@@H]1c1c[nH]c2ccccc12",
    "experimental system": "OVCAR-4 ovarian",
    "category label": "F"
  }
]
